- System: TNK2;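 note: KINOMEscan kinase panel screen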
- STUDY CONDITIONS: concentration: 1 μM, replicates: in singlicate; n = 1
# binarize %Inh: threshold 9% inclusive, high side Satisfied, low side Not satisfied

As a guide, the following entries are already answered.
Cc1c(Cn2ccn3c(=O)cc(N4CCOCC4)nc23)cccc1C(F)(F)F	Not satisfied
COc1ccc2nc(-c3cccc(C)n3)nc(Nc3ccncc3)c2c1	Satisfied

(Q) # check: %Inh of COc1ccccc1-c1ccc2c(NC(=O)C3CC3)n[nH]c2n1 is greater than or equal to 9%
(A) Not satisfied

(Q) Thanks! And CS(=O)(=O)c1ccc(-c2c(-c3ncn[nH]3)sc(N3CCOCC3)c2C#N)cc1 ?
(A) Satisfied

(Q) Can you check Fc1cc(Cl)ccc1Nc1ccnc2cc(I)ccc12 next?
(A) Satisfied

(Q) Same question for Cc1cccc(-c2cc(Nc3ccncc3)c3ccccc3n2)n1 please.
(A) Not satisfied

(Q) Also, COc1cc2nccc(Nc3ccc(NC(=O)c4ccc(C)cc4)c(O)c3)c2cc1OC.Cl please.
(A) Satisfied

(Q) Field entry: COc1ccc(Nc2nccc(-c3cccc(NC(=O)c4cc5cc(F)ccc5[nH]4)c3)n2)cc1
(A) Satisfied
